Source of measurements: ChEMBL document CHEMBL4513216

# System: Plasmodium berghei
# ASSAY DETAILS: Screen against P. berghei liver stage (PbLuc), transformed with Luciferase, at 2uM
# Type: functional, HepG2
# CONDITION LABEL: tested at 2 uM
Among all 68,000 compounds or so, about 2,700 (4%) showed an effect of 50% or more. The list comes from a sample in which strong results are over-represented; it also holds close analogues and randomly drawn compounds.
// reported INHIBITION for each item listed
Dear colleague, please return just the value in %, with no unit written.

The following compounds have reported results that may help.
CN1CC2(CCN(S(=O)(=O)C3CC3)CC2)c2ccccc21 :: 13.26
Cc1cc(C(=O)N2CCc3ncnc(N4CCSCC4)c3CC2)[nH]n1 :: 64.2
CCN(CC)CCCNC(=O)c1nn(CC)cc1Cl :: 24.34

### Prompt Report INHIBITION for CCC(O)CNc1nccc(-c2ccc(C)nc2C)n1 (configuration not stated) please.
### Response -23.27

### Prompt Which INHIBITION is listed for `CN(C)C(=O)CN1CCC2(CCN(C(=O)N3CCCC3)CC2)C1=O` ?
### Response -4.75

### Prompt Need INHIBITION of `CN(C)C(=O)CN1CCC2(CCN(S(C)(=O)=O)CC2)C1=O` , thanks.
### Response 39.73

### Prompt Using the record for `CCCN1CCN(C(=O)c2ccn(COc3ccc(F)cc3)n2)CC1` , report its INHIBITION.
### Response -15.49

### Prompt Quick one: INHIBITION for `CCc1ccccc1C(=O)NS(=O)(=O)CCCC#N` ?
### Response -32.8

---

# Test system: Plasmodium berghei
# ASSAY DETAILS: Screen against P. berghei liver stage (PbLuc), transformed with Luciferase, at 2uM
# Assay type: functional, HepG2
# CONDITION LABEL: tested at 2 uM
The campaign covered roughly 68,000 compounds. About 2,700 (4%) showed an effect of 50% or more. The list comes from a sample in which strong results are over-represented; it also holds close analogues and randomly drawn compounds.
Label scheme for INHIBITION: lower than -20% is rule not met, -20% and above is rule met.

COCCS(=O)(=O)c1ncc(CN(C)C)n1Cc1ccccc1 :: rule met

### Prompt Could you verify whether the entry `CCc1ncc(CN2CCN(c3cc(NC4CC4)nc(N)n3)CC2)cn1` shows INHIBITION of no less than -20%?
### Response rule met

---

# System: Plasmodium berghei
# ASSAY DETAILS: Screen against P. berghei liver stage (PbLuc), transformed with Luciferase, at 2uM
# Format: functional, HepG2
# CONDITION LABEL: tested at 2 uM
The whole screen tested about 68,000 compounds, of which about 2,700 (4%) showed an effect of 50% or more. The full list was thinned out, with strong results kept by preference.
MEASURED PROPERTY: INHIBITION (%)
# value in %; strip the unit string

Here are 5 compounds together with their reported answers.
CC1CCCN(CCNC(=O)c2ccn(-c3ccccc3)n2)C1 (centres undefined) :: -61.61
CC1CCCN(CCNC(=O)c2scnc2Cl)C1 (centres undefined) :: 78.42
CNC(=O)c1cc2c(nc1N(C)C)CCN(c1ncccn1)CC2 :: -31.3
Cc1cc(C(=O)NCC(C)C)c2c(C3CCCN3)noc2n1 (centres undefined) :: -14.61
Cc1cc(C(=O)NCCN2CCC(C)CC2)nn1C(C)(C)C :: 10.1

### Prompt Would you mind telling me what INHIBITION value was observed for `c1ncc(-c2cn(CCSc3cnn[nH]3)nn2)cn1` ?
### Response 70.58

### Prompt Look at this compound and give its reported INHIBITION. CCC(C)NC(=O)c1cc(S(N)(=O)=O)c(Br)s1 (centres undefined)
### Response -70.18

### Prompt Consider the compound O=C(O)C1CCCN(C(=O)CCn2ccc3c(Cl)cccc32)C1 (centres undefined) and give its measured INHIBITION.
### Response -23.9

### Prompt Quick check: INHIBITION of `CC(=O)Nc1ccc(CNCc2ccc(CS(C)(=O)=O)cc2)cc1` ?
### Response -1.53

### Prompt GET /values?readout=INHIBITION&item= `CC(C)c1cc(C(=O)NC2CCN(CC(N)=O)CC2)nn1C(C)(C)C`
### Response 0.79

### Prompt Given `Cc1ccsc1C(=O)N1CCCN(Cc2cscn2)CC1` , state its recorded INHIBITION.
### Response 29.12

### Prompt Recorded INHIBITION of `Cc1cc(C(=O)NC2CCN(CC(N)=O)CC2)nn1C(C)(C)C` , please.
### Response 61.06

### Prompt Look up INHIBITION: CCC(C)NC(=O)c1cc(S(=O)(=O)N2CCCC2)c(C)s1 (centres undefined)
### Response 53.12

### Prompt Request the reported INHIBITION associated with `O=C(NCCN1CCCCC1)c1scnc1Cl`
### Response -9.66
